# assayedSystem: human TRPA1 (Homo sapiens, UniProt O75762)
# Sequence (O75762 whole entry): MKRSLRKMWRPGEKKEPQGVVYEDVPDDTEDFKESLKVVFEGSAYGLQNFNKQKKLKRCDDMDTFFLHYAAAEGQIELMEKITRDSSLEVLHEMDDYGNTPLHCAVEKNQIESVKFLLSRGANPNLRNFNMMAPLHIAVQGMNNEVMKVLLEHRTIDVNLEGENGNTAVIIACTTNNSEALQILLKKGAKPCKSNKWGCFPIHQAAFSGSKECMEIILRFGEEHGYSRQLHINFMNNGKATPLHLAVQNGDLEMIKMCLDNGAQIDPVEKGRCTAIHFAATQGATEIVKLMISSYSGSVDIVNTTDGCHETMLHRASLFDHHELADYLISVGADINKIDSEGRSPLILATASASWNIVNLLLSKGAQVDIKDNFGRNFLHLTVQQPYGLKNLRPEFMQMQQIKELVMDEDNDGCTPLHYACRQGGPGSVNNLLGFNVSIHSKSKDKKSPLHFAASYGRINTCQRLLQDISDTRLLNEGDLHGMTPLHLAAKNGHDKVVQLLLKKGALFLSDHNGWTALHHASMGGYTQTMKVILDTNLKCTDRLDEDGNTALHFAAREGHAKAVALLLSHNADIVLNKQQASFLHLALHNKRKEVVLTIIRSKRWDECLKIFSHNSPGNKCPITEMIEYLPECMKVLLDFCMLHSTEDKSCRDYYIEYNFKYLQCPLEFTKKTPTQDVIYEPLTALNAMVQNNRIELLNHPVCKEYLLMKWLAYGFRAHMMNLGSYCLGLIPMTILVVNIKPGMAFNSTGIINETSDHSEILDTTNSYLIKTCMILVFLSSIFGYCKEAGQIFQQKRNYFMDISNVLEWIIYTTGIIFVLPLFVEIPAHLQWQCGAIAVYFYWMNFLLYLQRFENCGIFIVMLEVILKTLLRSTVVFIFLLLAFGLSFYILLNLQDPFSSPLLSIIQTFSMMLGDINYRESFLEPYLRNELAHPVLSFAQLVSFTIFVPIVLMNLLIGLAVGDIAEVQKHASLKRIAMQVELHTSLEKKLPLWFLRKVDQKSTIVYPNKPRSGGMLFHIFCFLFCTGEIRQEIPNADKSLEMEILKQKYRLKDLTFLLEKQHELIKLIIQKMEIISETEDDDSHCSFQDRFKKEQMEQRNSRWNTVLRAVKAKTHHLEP
# assayComment: cell-based
# assayConditions: read-out: Activity (IC50)

[
  {
    "compound": "CCOc1cccc(C2NC(=O)NC3=C2C(=O)c2ccccc23)c1F (stereo not drawn) [Compound 409]",
    "assayedSystem": "human TRPA1 (Homo sapiens, UniProt O75762)",
    "IC50": "< 100 nM"
  },
  {
    "compound": "C=CCOc1cccc(C2NC(=O)N(C)C3=C2C(=O)c2ccccc23)c1 (stereo not drawn) [Compound 629]",
    "assayedSystem": "human TRPA1 (Homo sapiens, UniProt O75762)",
    "IC50": "< 100 nM"
  },
  {
    "compound": "N#CN=C1NC2=C(C(=O)c3c(Cl)cccc32)C(c2cccc(OCC3CC3)c2)N1 (stereo not drawn) [Compound 954]",
    "assayedSystem": "human TRPA1 (Homo sapiens, UniProt O75762)",
    "IC50": "> 1000 nM"
  }
]

---

In this section we review reported pIC50 values for a set of compounds.
# assayedSystem: human TRPA1 (Homo sapiens, UniProt O75762)
# assayComment: cell-based
# assayConditions: read-out: Activity (IC50)
pIC50: −log10 of the molar value.

[
  {
    "compound": "N#Cc1cccc(C2NC(=O)NC3=C2C(=O)c2ccccc23)c1 (centres unmarked) [Compound 430]",
    "assayedSystem": "human TRPA1 (Homo sapiens, UniProt O75762)",
    "pIC50": "< 6.00"
  },
  {
    "compound": "O=C1NC2=C(C(=O)c3ccccc32)C(c2cccc(OCC3CC3)c2Cl)N1 (centres unmarked) [Compound 419]",
    "assayedSystem": "human TRPA1 (Homo sapiens, UniProt O75762)",
    "pIC50": "6.30 to 7.00"
  },
  {
    "compound": "COCCN1C(=O)NC(c2cccc(OC)c2)C2=C1c1ccccc1C2=O (centres unmarked) [Compound 627]",
    "assayedSystem": "human TRPA1 (Homo sapiens, UniProt O75762)",
    "pIC50": "6.30 to 7.00"
  },
  {
    "compound": "COCc1cccc(C2NC(=O)NC3=C2C(=O)c2ccccc23)c1 (centres unmarked) [Compound 453]",
    "assayedSystem": "human TRPA1 (Homo sapiens, UniProt O75762)",
    "pIC50": "< 6.00"
  },
  {
    "compound": "C=CCC(F)c1cccc(C2NC(=O)NC3=C2C(=O)c2ccccc23)c1 (centres unmarked) [Compound 402]",
    "assayedSystem": "human TRPA1 (Homo sapiens, UniProt O75762)",
    "pIC50": "> 7.00"
  }
]

---

# assayedSystem: human TRPA1 (Homo sapiens, UniProt O75762)
# assayComment: cell-based
# assayConditions: read-out: Activity (IC50)
pIC50: −log10 of the molar value.
In this section we review reported pIC50 values for a set of molecules.

[
  {
    "molecule": "C=CCOc1cccc(C2NC(=O)N(C)C3=C2C(=O)c2ccccc23)c1Cl (stereo not shown)",
    "pIC50": "> 7.00"
  },
  {
    "molecule": "CCCOc1cccc(C2NC(=O)N(C)C3=C2C(=O)c2ccccc23)c1 (stereo not shown)",
    "pIC50": "> 7.00"
  },
  {
    "molecule": "CN1C(=S)NC(c2ccccc2)C2=C1c1cccc(O)c1C2=O (stereo not shown)",
    "pIC50": "< 6.00"
  },
  {
    "molecule": "N#CN=C1NC2=C(C(=O)c3ccccc32)C(c2cccc(C#N)c2)N1 (stereo not shown)",
    "pIC50": "< 6.00"
  },
  {
    "molecule": "CCOc1cccc(C2NC(=O)N(CC)C3=C2C(=O)c2ccccc23)c1 (stereo not shown)",
    "pIC50": "> 7.00"
  },
  {
    "molecule": "N#CN=C1NC2=C(C(=O)c3ccccc32)C(c2cccc(OCC3CCC3)c2)N1 (stereo not shown)",
    "pIC50": "< 6.00"
  },
  {
    "molecule": "C=CCOc1cccc(C2NC(=O)NC3=C2C(=O)c2ccccc23)c1F (stereo not shown)",
    "pIC50": "> 7.00"
  }
]

---

# assayedSystem: human TRPA1 (Homo sapiens)
# assayComment: cell-based
# assayConditions: read-out: Activity (IC50)
pIC50: −log10 of the molar value.
In this section we review reported pIC50 values for a set of compounds.
quantityKind: pIC50

[
  {
    "compound": "C=CCOc1ccc(Cl)c(C2NC(=O)NC3=C2C(=O)c2ccccc23)c1 (centres unmarked) [Compound 415]",
    "reading": "6.30 to 7.00"
  },
  {
    "compound": "O=C1NC2=C(C(=O)c3ccccc32)C(c2cccs2)N1 (centres unmarked)",
    "reading": "< 6.00"
  },
  {
    "compound": "CCOc1cccc(C2NC(=O)N(Cc3ccccn3)C3=C2C(=O)c2ccccc23)c1 (centres unmarked)",
    "reading": "< 6.00"
  },
  {
    "compound": "C=CCOc1cccc(C2NC(=O)N(CC)C3=C2C(=O)c2ccccc23)c1 (centres unmarked)",
    "reading": "> 7.00"
  },
  {
    "compound": "CCCC(O)c1cccc(C2NC(=O)NC3=C2C(=O)c2cccnc23)c1 (centres unmarked)",
    "reading": "6.30 to 7.00"
  },
  {
    "compound": "CN1C(=S)NC(c2ccccc2)C2=C1c1ccccc1C2=O (centres unmarked)",
    "reading": "> 7.00"
  },
  {
    "compound": "CCOc1cccc(C2NC(=O)N(C)C3=C2C(=O)c2ccccc23)c1 (centres unmarked)",
    "reading": "> 7.00"
  },
  {
    "compound": "C=CCOc1cccc(C2NC(=S)N(C)C3=C2C(=O)c2ccccc23)c1 (centres unmarked)",
    "reading": "> 7.00"
  },
  {
    "compound": "COc1ccc(Cl)c(C2NC(=O)NC3=C2C(=O)c2ccccc23)c1 (centres unmarked)",
    "reading": "< 6.00"
  },
  {
    "compound": "COc1ccc(F)c(C2NC(=O)NC3=C2C(=O)c2ccccc23)c1 (centres unmarked)",
    "reading": "< 6.00"
  },
  {
    "compound": "C=CCOc1cccc(C2NC(=O)N(CC(=O)OCC)C3=C2C(=O)c2ccccc23)c1 (centres unmarked)",
    "reading": "> 7.00"
  },
  {
    "compound": "CCOc1cccc(C2NC(=S)N(C)C3=C2C(=O)c2ccccc23)c1 (centres unmarked)",
    "reading": "> 7.00"
  },
  {
    "compound": "CCOc1cccc(C2NC(=O)N(CC(=O)OC(C)(C)C)C3=C2C(=O)c2ccccc23)c1 (centres unmarked)",
    "reading": "6.00 to 6.30"
  },
  {
    "compound": "CCCOc1cc(F)cc(C2NC(=O)NC3=C2C(=O)c2ccccc23)c1F (centres unmarked)",
    "reading": "> 7.00"
  },
  {
    "compound": "CCCOc1cccc(C2NC(=O)NC3=C2C(=O)c2ccccc23)c1 (centres unmarked)",
    "reading": "> 7.00"
  },
  {
    "compound": "CCOc1cccc(C2NC(=O)NC3=C2C(=O)c2ccccc23)c1Cl (centres unmarked)",
    "reading": "6.00 to 6.30"
  },
  {
    "compound": "CCCS(=O)(=O)c1cccc(C2NC(=O)NC3=C2C(=O)c2cccnc23)c1 (centres unmarked)",
    "reading": "< 6.00"
  },
  {
    "compound": "O=C1NC2=C(C(=O)c3ccccc32)C(c2ccccc2Cl)N1 (centres unmarked)",
    "reading": "6.00 to 6.30"
  },
  {
    "compound": "O=C1NC2=C(C(=O)c3ccccc32)C(c2ccccc2F)N1 (centres unmarked)",
    "reading": "< 6.00"
  },
  {
    "compound": "CCCCOc1cccc(C2NC(=O)NC3=C2C(=O)c2ccccc23)c1 (centres unmarked)",
    "reading": "> 7.00"
  }
]

---

# assayedSystem: human TRPA1 (Homo sapiens)
# assayComment: cell-based
# assayConditions: read-out: Activity (IC50)
pIC50: −log10 of the molar value.
In this section we review reported pIC50 values for a set of molecules.

[
  {
    "molecule": "C=CCOc1cccc(C2NC(=NC#N)N(Cc3ccccc3)C3=C2C(=O)c2ccccc23)c1 (stereo not drawn) [Compound 961]",
    "pIC50": "< 6.00"
  },
  {
    "molecule": "CCOc1cccc(C2NC(=O)NC3=C2C(=O)c2cccnc23)c1F (stereo not drawn) [Compound 901]",
    "pIC50": "6.30 to 7.00"
  },
  {
    "molecule": "CCCN1C(=O)NC(c2cccc(OC)c2)C2=C1c1ccccc1C2=O (stereo not drawn) [Compound 624]",
    "pIC50": "< 6.00"
  }
]
